molecular target: wild-type Epidermal Growth Factor Receptor (EGFR) (Homo sapiens (Human), UniProt P00533); assay: WT-EGFR Kinase Assay (TR-FRET, 2 mM ATP); type: biochemical; details: EGFR Wildtyp 2 mM ATP IC50 [mol/l] (median), median or individual measurements
Sequence (P00533 669-1210): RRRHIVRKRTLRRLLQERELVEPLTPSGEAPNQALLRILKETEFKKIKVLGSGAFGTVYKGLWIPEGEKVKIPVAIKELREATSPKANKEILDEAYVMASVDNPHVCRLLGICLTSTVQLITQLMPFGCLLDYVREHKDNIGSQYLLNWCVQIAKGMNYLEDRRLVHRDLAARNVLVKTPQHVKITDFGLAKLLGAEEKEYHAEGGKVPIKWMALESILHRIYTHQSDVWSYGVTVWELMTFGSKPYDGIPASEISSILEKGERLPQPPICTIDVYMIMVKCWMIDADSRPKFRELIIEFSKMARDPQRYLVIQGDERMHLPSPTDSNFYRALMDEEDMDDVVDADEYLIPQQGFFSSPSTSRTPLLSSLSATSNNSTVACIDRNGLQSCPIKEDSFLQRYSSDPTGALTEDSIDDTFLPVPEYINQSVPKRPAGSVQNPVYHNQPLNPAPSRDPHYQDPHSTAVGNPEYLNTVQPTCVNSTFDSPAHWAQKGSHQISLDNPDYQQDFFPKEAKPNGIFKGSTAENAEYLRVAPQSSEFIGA
Record form. Attribute: IC50. Fill in for each entry.

Cn1ccc2[nH]c(-c3ccnc(NC(=O)C(CC(F)F)c4ccc(F)cc4)c3)c(-c3ccc(F)cc3)c2c1=O (single isomer, unassigned; (+)) [Example 109]	3.85 µM

# return IC50 for each item in the list
1. CC(C(=O)Nc1cc(-c2[nH]c3ccn(C)c(=O)c3c2-c2ccc(O)cc2)ccn1)c1ccc(F)cc1 (racemic)
2. O=C(Nc1cc(-c2[nH]c3cc[nH]c(=O)c3c2-c2ccccc2)ccn1)C(CC(F)F)c1ccc(F)cc1 (racemic)
3. CC(C(=O)Nc1cc(-c2[nH]c3c(c2-c2cccnc2)C(=O)NC(C)(C)C3)ccn1)c1ccc(F)cc1 (racemic) [Example 97]
4. Cc1ccc(-c2c(-c3ccnc(NC(=O)C(C)c4ccc(F)cc4)c3)[nH]c3ccn(C)c(=O)c23)s1 (racemic)
5. CC(C(=O)Nc1cc(-c2[nH]c3ccn(C)c(=O)c3c2-c2ccco2)ccn1)c1ccc(F)cc1 (racemic)
6. Cn1cc(CC2CC2)c2[nH]c(-c3ccnc(NC(=O)C(CC(F)F)c4ccc(F)cc4)c3)c(-c3ccccc3)c2c1=O (racemic)
7. CC(C(=O)Nc1cc(-c2[nH]c3c(c2-c2ccccc2)C(=O)N(C)C2(CCC2)C3)ccn1)c1ccc(F)cc1 (racemic) [Example 052]

## Result
> 20 µM
> 20 µM
> 20 µM
> 1.63 µM
> 5.71 µM
> 20 µM
> 20 µM

I would be grateful if you could provide IC50 for each of the following entries.
1. CC(C(=O)Nc1cc(-c2[nH]c3c(c2-c2ccccc2)C(=O)N(C)C2(CCC2)C3)ccn1)c1ccc(F)cc1 (single isomer, unassigned; (-)) [Example 053]
2. CN1CC(CC2CC2)c2[nH]c(-c3ccnc(NC(=O)Cc4ccc(F)cc4)c3)c(-c3ccccc3)c2C1=O (racemic)
3. CC(C(=O)Nc1cc(-c2[nH]c3c(CC(F)(F)F)cn(C)c(=O)c3c2-c2ccc(F)cc2)ccn1)c1ccc(F)cc1 (racemic) [Example 022]

## Result
["> 20 µM", "3.43 µM", "> 20 µM"]

====

target: wild-type Epidermal Growth Factor Receptor (EGFR) (Homo sapiens (Human)); assay: WT-EGFR Kinase Assay (TR-FRET, 2 mM ATP); assay type: biochemical; settings: read-out: EGFR Wildtyp 2 mM ATP IC50 [mol/l] (median), median or individual measurements
Recorded Endpoint: IC50

Here's what some known entries look like.
CC1CN(C)C(=O)c2c1[nH]c(-c1ccnc(NC(=O)C(C)c3ccc(F)cc3)c1)c2-c1ccccc1 (stereo not drawn)	> 20 µM
CC(C(=O)Nc1cc(-c2[nH]c3c(c2-c2cccnc2)C(=O)NC(C)(C)C3)ccn1)c1ccc(F)cc1 (single isomer, unassigned)	> 20 µM

We now examine a further compound.
## Task For the record CC(C(=O)Nc1cc(-c2[nH]c3c(c2-c2ccc(F)cc2)C(=O)N(C)CC3CC(F)(F)F)ccn1)c1ccc(F)cc1 (stereo not drawn) , what value of IC50 is listed for wild-type Epidermal Growth Factor Receptor (EGFR) (Homo sapiens (Human))?
## Result > 20 µM
